Values compiled from ChEMBL document CHEMBL1140336.

measure_name: Ki (nM)
Unit nM implied. Number only.

Lookup: Which Ki is reported with Lysophosphatidic acid receptor 1 (Homo sapiens) for this entry: CCCCCCCCCCCCCCOP(=O)(O)O ?
Found: 1080

Lookup: Which Ki is reported with Lysophosphatidic acid receptor 1 (Homo sapiens) for this entry: Cc1noc(-c2ccc(CSCCC(=O)O)cc2)c1NC(=O)OC(C)c1ccccc1Cl (configuration not stated) ?
Found: 425

====

Target: Lysophosphatidic acid receptor 3 (Homo sapiens, UniProt Q9UBY5)
Sequence (Q9UBY5 whole entry): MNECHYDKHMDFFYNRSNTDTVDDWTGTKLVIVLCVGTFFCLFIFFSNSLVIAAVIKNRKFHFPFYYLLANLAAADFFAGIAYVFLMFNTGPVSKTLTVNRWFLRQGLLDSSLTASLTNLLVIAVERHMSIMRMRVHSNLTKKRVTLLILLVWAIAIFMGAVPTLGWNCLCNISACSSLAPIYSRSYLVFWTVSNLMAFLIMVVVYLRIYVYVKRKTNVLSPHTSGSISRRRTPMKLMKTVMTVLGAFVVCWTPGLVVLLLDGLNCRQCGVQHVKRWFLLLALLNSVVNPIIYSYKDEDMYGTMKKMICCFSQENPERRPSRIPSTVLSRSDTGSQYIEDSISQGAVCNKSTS
Test: Inhibition of LPA-induced calcium transients in RH7777 rat hepatoma cells expressing LPA3 receptor
Format: functional, cell-based
pIC50: −log10 of the molar value.
Rule: pIC50 of 6 or more gives Criterion met; anything lower gives Criterion not met.

Lookup: Textbook exercise: given the entry CCCCCCCCCCCCCCP(=O)(O)O , state whether its pIC50 is greater than or equal to 6.
Found: Criterion not met

Lookup: Textbook exercise: given the entry CCCCCCCCCCOP(=O)(O)O , state whether its pIC50 is greater than or equal to 6.
Found: Criterion met

Lookup: Textbook exercise: given the entry CCCCCCCCCCCCCCCC(=O)N[C@@H](Cc1ccc(OP(=O)(O)O)cc1)C(=O)O , state whether its pIC50 is greater than or equal to 6.
Found: Criterion not met

Lookup: Textbook exercise: given the entry CCCCCCCCCCCCCCOP(=O)(O)O , state whether its pIC50 is greater than or equal to 6.
Found: Criterion met

Lookup: Textbook exercise: given the entry CCCCCCCCCCCCOP(=O)(O)O , state whether its pIC50 is greater than or equal to 6.
Found: Criterion met
